B1: RPAIN (parent)
chain: ISEYEKSLQFDEKCLSIMLAEWEA

- Variants of: B1
- procedure-details: protein stability index of a GFP-peptide fusion (GPS, HEK-293T) (PSI 1-6); higher = more stable;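 note: lentivirally expressed fusions sorted by FACS into six bins by GFP to DsRed ratio, PSI derived from sequencing read proportions per bin multiplied by bin number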
- run-parameters: c terminus: a fixed tail appended
# label = fulfilled if protein stability index >= 2 else not fulfilled

Worked examples, 3 variants total:
primary-sequence	class-name
ISEYEKSLRFDEKCLSIMLAEWEA [Q9R]	fulfilled
ISEYEKSLAFDEKCLSIMLAEWEA [Q9A]	not fulfilled
ISWYEKSLQFDEKCLSIMLAEWEA [E3W]	fulfilled

Query: Hi, just wondering whether ISEYEKSKQFDEKCLSIMLAEWEA [L8K] shows protein stability index of 2 or higher.
Reply: fulfilled

Query: Hi, just wondering whether ISEYEGSLQFDEKCLSIMLAEWEA [K6G] shows protein stability index of 2 or higher.
Reply: not fulfilled

Query: Hi, just wondering whether GSEYEKSLQFDEKCLSIMLAEWEA [I1G] shows protein stability index of 2 or higher.
Reply: not fulfilled

Query: Hi, just wondering whether ISEYEKSLQFDTKCLSIMLAEWEA [E12T] shows protein stability index of 2 or higher.
Reply: not fulfilled

Query: Hi, just wondering whether ISEYEKSLQFDEKCLSIVLAEWEA [M18V] shows protein stability index of 2 or higher.
Reply: not fulfilled

Query: Hi, just wondering whether ISEYPKSLQFDEKCLSIMLAEWEA [E5P] shows protein stability index of 2 or higher.
Reply: fulfilled
